# Method Summary: physchem
# Assay type: physicochemical
# Applied Conditions: pH 7.8
The label depends only on chromatographic logP: yes if it is at least 3, no if it is smaller.

[
  {
    "Compound": "S=C1CCCN1c1cccc(Nc2ncc(Cl)c(NC3CC3)n2)c1 [Example 33]",
    "Group": "no"
  },
  {
    "Compound": "CCOC(=O)[C@@H]1CCC(=O)N1c1cccc(Nc2ncc(Cl)c(NC3CC3)n2)c1 [Example 190]",
    "Group": "no"
  },
  {
    "Compound": "COCC(=O)N(c1cccc(N2CCCC2=O)c1)c1ncc(Cl)c(NC2CC2)n1 [Example 231]",
    "Group": "no"
  },
  {
    "Compound": "CC(C)OC(=O)N(c1cccc(N2CCCC2=O)c1)c1ncc(Cl)c(NC2CC2)n1 [Example 329]",
    "Group": "no"
  },
  {
    "Compound": "CCC1CC(C)C(=O)N1c1cccc(Nc2ncc(Cl)c(NC3CC3)n2)c1 (stereo not shown) [Example 206]",
    "Group": "yes"
  },
  {
    "Compound": "CCOC(=O)N(c1cccc(N2CCCC2=O)c1)c1ncc(Cl)c(NC2CC2)n1 [Example 330]",
    "Group": "no"
  }
]

---

# Method Summary: log P by HPLC on reversed-phase columns (C 18), method [a], acidic range pH 2.3
# Type: physicochemical
# Applied Conditions: pH 2.3

[
  {
    "Compound": "CC(C)CC1COC(=O)N1c1cccc(Nc2ncc(Br)c(NC3CCC3)n2)c1 (stereo not drawn)",
    "log p": "3.05[a]"
  },
  {
    "Compound": "CC1(C)CC(=O)N(c2cccc(Nc3ncc(Cl)c(NC4CC4(C)C)n3)c2)C1=O (stereo not drawn)",
    "log p": "2.42[a];"
  },
  {
    "Compound": "O=C1CCC(CO)N1c1cccc(Nc2ncc(Cl)c(NC3CC3)n2)c1 (stereo not drawn) [Example 86]",
    "log p": "0.98[a]"
  },
  {
    "Compound": "CC1CCC(=O)N1c1cccc(Nc2ncc(Cl)c(NC3CC3)n2)c1 (stereo not drawn) [Example 30]",
    "log p": "1.6[a];"
  },
  {
    "Compound": "COCC(C)Nc1nc(Nc2cccc(N3C(=O)OCC3C)c2)ncc1Cl (stereo not drawn)",
    "log p": "1.6[a];"
  },
  {
    "Compound": "CC(C)Nc1nc(Nc2cccc(N3CCCC3=O)c2)ncc1Cl",
    "log p": "1.52[a];"
  },
  {
    "Compound": "O=C1CCCCN1c1cccc(Nc2ncc(F)c(NC3CCC3)n2)c1",
    "log p": "1.29[a]"
  },
  {
    "Compound": "C[C@H]1CCN(c2cccc(Nc3ncc(Cl)c(NC4CC4)n3)c2)C1=O",
    "log p": "2.86[a];"
  },
  {
    "Compound": "CCCNc1nc(Cl)ncc1Cl",
    "log p": 2.42
  }
]

---

# Method Summary: log P by LC-MS, method [b], acid range pH 2.7
# Format: physicochemical
# Applied Conditions: pH 2.7
# Experimental: The log P values were measured in accordance with EEC Directive 79/831 Annex V.A8 by HPLC (High Performance Liquid Chromatography) on reversed-phase columns (C 18) using the methods below: [b] The LC-MS determination in the acid range was carried out at pH 2.7 using the mobile phases 0.1% aqueous formic acid and acetonitrile (contains 0.1% formic acid) linear gradient from 10% acetonitrile to 95% acetonitrile.
Reported log p values are given for each entry in this list.
Observation Type: log p

[
  {
    "Molecule": "CC(C)[C@H]1COC(=O)N1c1cccc(Nc2ncc(Cl)c(NC3CC3)n2)c1",
    "Observation Type": "log p",
    "Data Value": "2.47[b]"
  },
  {
    "Molecule": "CC1CCN(c2cccc(Nc3ncc(Cl)c(NC4CC4C)n3)c2)C1=O (stereo not drawn)",
    "Observation Type": "log p",
    "Data Value": "2.06[b]"
  },
  {
    "Molecule": "COc1cc(Nc2ncc(Cl)c(NC3CC3)n2)cc(N2CCCC2=O)c1",
    "Observation Type": "log p",
    "Data Value": "1.64[b]"
  },
  {
    "Molecule": "O=C1CCCN1c1cc(Nc2ncc(C(F)(F)F)c(NCC3CC3)n2)ccc1F",
    "Observation Type": "log p",
    "Data Value": "2.41[b]"
  },
  {
    "Molecule": "CC1CCC(=O)N1c1cccc(Nc2ncc(Cl)c(NCC(F)F)n2)c1 (stereo not drawn)",
    "Observation Type": "log p",
    "Data Value": "1.81[b]"
  },
  {
    "Molecule": "CC(C)Nc1nc(Nc2cccc(N3CCOCC3=O)c2)ncc1Cl",
    "Observation Type": "log p",
    "Data Value": "1.41[b]"
  },
  {
    "Molecule": "CC1CC1Nc1nc(Nc2cccc(N3CCCC3=O)c2)ncc1C(F)(F)F (stereo not drawn)",
    "Observation Type": "log p",
    "Data Value": "2.79[b]"
  },
  {
    "Molecule": "CC1CC(Nc2nc(Nc3cccc(N4C(=O)CC(C)(C)C4=O)c3)ncc2Br)C1 (stereo not drawn)",
    "Observation Type": "log p",
    "Data Value": "2.58[b]"
  },
  {
    "Molecule": "CC(C)[C@H]1COC(=O)N1c1cccc(Nc2ncc(Cl)c(NC3CCC3)n2)c1",
    "Observation Type": "log p",
    "Data Value": "2.38[b]"
  },
  {
    "Molecule": "CC1CC(C)N(c2cccc(Nc3ncc(Cl)c(NC4CCC4)n3)c2)C1=O (stereo not drawn)",
    "Observation Type": "log p",
    "Data Value": "2.2[b]"
  },
  {
    "Molecule": "CC1COC(=O)N1c1ccc(Nc2ncc(Br)c(NCC(F)F)n2)cc1 (stereo not drawn)",
    "Observation Type": "log p",
    "Data Value": "1.78[b]"
  },
  {
    "Molecule": "C[C@H]1COC(=O)N1c1cccc(Nc2ncc(Cl)c(N3CCC3)n2)c1",
    "Observation Type": "log p",
    "Data Value": "1.58[b]"
  },
  {
    "Molecule": "CC1COC(=O)N1c1cccc(Nc2ncc(Br)c(NCC3CC3)n2)c1 (stereo not drawn)",
    "Observation Type": "log p",
    "Data Value": "1.75[b]"
  },
  {
    "Molecule": "CC1CC(=O)N(c2cccc(Nc3ncc(Cl)c(NC4CC4)n3)c2)C1=O (stereo not drawn)",
    "Observation Type": "log p",
    "Data Value": "1.59[b]"
  },
  {
    "Molecule": "COCC(C)Nc1nc(Nc2cccc(N3C(=O)CC(C)C3=O)c2)ncc1Cl (stereo not drawn)",
    "Observation Type": "log p",
    "Data Value": "1.59[b]"
  },
  {
    "Molecule": "CC1CC1Nc1nc(Nc2cccc(N3CCCCC3=O)c2)ncc1Cl (stereo not drawn)",
    "Observation Type": "log p",
    "Data Value": "1.7[b]"
  },
  {
    "Molecule": "CC1CC(=O)N(c2cccc(Nc3ncc(Br)c(NC4CCC4)n3)c2)C1=O (stereo not drawn)",
    "Observation Type": "log p",
    "Data Value": "1.9[b]"
  },
  {
    "Molecule": "COCC(C)Nc1nc(Nc2ccc(N3CCOC3=O)cc2)ncc1Cl (stereo not drawn)",
    "Observation Type": "log p",
    "Data Value": "1.46[b]"
  }
]

---

Reported log p values are given for each entry in this list.
# Method Summary: physchem
# Assay type: physicochemical
# Applied Conditions: pH 7.8
Observation Type: log p

[
  {
    "Molecule": "CC1CC(Nc2nc(Nc3cccc(N4CCOC4=O)c3)ncc2Cl)C1 (stereo not drawn) [Example 256]",
    "Data Value": "2.99[c]"
  },
  {
    "Molecule": "CC1CCN(Cc2cccc(Nc3ncc(Cl)c(NC4CC4)n3)c2)C1=O (stereo not drawn) [Example 234]",
    "Data Value": "2.57[c]"
  },
  {
    "Molecule": "O=C1CCC(C(F)(F)F)N1c1cccc(Nc2ncc(C(F)(F)F)c(NC3CC3)n2)c1 (stereo not drawn) [Example 314]",
    "Data Value": "2.98[c];"
  },
  {
    "Molecule": "COC(=O)N(c1cccc(N2CCCC2=O)c1)c1ncc(Cl)c(NC2CC2)n1 [Example 327]",
    "Data Value": "1.99[c];"
  },
  {
    "Molecule": "O=C1CCCN1c1cccc(Nc2ncc(Cl)c(N3CCSCC3)n2)c1 [Example 228]",
    "Data Value": "3.01[c];"
  },
  {
    "Molecule": "CC(C)C1COC(=O)N1c1cccc(Nc2ncc(C(F)(F)F)c(NC3CCC3)n2)c1 (stereo not drawn) [Example 263]",
    "Data Value": "3.85[c];"
  },
  {
    "Molecule": "CCC1CCC(=O)N1c1cccc(Nc2ncc(Cl)c(NC3CC3)n2)c1 (stereo not drawn) [Example 294]",
    "Data Value": "2.74[c];"
  },
  {
    "Molecule": "O=C1CCCN1c1cccc(Nc2ncc(F)c(NC3CCC3)n2)c1 [Example 43]",
    "Data Value": "2.32[c]"
  },
  {
    "Molecule": "CCOC(=O)[C@@H]1CCC(=O)N1c1cccc(Nc2ncc(Br)c(NC3CC3)n2)c1 [Example 191]",
    "Data Value": "2.65[c]"
  }
]
